# Read-out: Nuclear factor NF-kappa-B p105 subunit (Homo sapiens)
# run-description: LTEA_HepaRG_NFKB1: Life Technologies and Expression Analysis (LTEA) Assay for Nuclear Factor Kappa B Subunit 1 (NFKB1) using HepaRG (AID 2283521);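 as to outcome: differentiated human HepaRG liver cells in serum-free induction medium; TaqMan qRT-PCR transcript normalised to ACTB GAPDH and POLR2A housekeeping genes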
# condition-context: mRNA level, 48 h; actives raise or lower the signal
Activity calls are given as the source filed them. The calls were made as follows: active = hit-call score of the fitted dose curve at least 0.9, where 1 is the maximum; inactive = score below 0.9.
Your reply should match one of these outcome classes. 1.0 = active, 0.0 = inactive

Look up the recorded call for `CCSC(=O)N(CC(C)C)CC(C)C` in this test.
0.0

Look up the recorded call for `CC(C)(C)[C@@H](O)[C@@H](Cc1ccc(Cl)cc1)n1cncn1` in this test.
0.0

Look up the recorded call for `CCOC(=O)NCCOc1ccc(Oc2ccccc2)cc1` in this test.
0.0

Look up the recorded call for `CCCCOCCOCCOCc1cc2c(cc1CCC)OCO2` in this test.
0.0

Look up the recorded call for `C[C@]12C[C@H](O)[C@H]3[C@@H](CCC4=CC(=O)CC[C@@]43C)[C@@H]1CC[C@@H]2C(=O)CO` in this test.
0.0

Look up the recorded call for `O=C(O)C1(C(=O)Nc2ccc(Cl)cc2Cl)CC1` in this test.
1.0

Look up the recorded call for `CCNc1nc(N)nc(Cl)n1` in this test.
0.0

Look up the recorded call for CCOC(=O)C(C)Oc1ccc(Oc2nc3ccc(Cl)cc3o2)cc1 (stereo unspecified) in this test.
0.0

Look up the recorded call for `COC(=O)c1ccccc1C(=O)O` in this test.
0.0

Look up the recorded call for C[C@]12CC[C@@H]3c4ccc(O)cc4C[C@@H](CCCCCCCCCS(=O)CCCC(F)(F)C(F)(F)F)[C@H]3[C@@H]1CC[C@@H]2O (stereo partly specified) in this test.
1.0

Look up the recorded call for CCCCCCC(C)OC(=O)COc1nc(F)c(Cl)c(N)c1Cl (stereo unspecified) in this test.
0.0

Look up the recorded call for `O=C(Nc1ccc([N+](=O)[O-])cc1Cl)c1cc(Cl)ccc1O` in this test.
0.0

Look up the recorded call for `CCCN(CCC)c1c([N+](=O)[O-])cc(C(F)(F)F)c(N)c1[N+](=O)[O-]` in this test.
0.0

Look up the recorded call for `O=C(c1ccccc1)C1CCCCC1` in this test.
0.0

Look up the recorded call for CCC(C)OC(=O)N1CCCCC1CCO (stereo unspecified) in this test.
0.0

Look up the recorded call for CCCCOC(=O)C(C)Oc1ccc(Oc2ccc(C(F)(F)F)cn2)cc1 (stereo unspecified) in this test.
0.0

Look up the recorded call for `O=C(c1ccc(O)cc1O)c1ccc(O)cc1O` in this test.
0.0

Look up the recorded call for `CC(C)CCCCCCc1ccc(O)cc1` in this test.
0.0

Look up the recorded call for `c1ccc(Nc2ccccc2)cc1` in this test.
0.0

Look up the recorded call for `N#CSCSc1nc2ccccc2s1` in this test.
0.0

Look up the recorded call for `CC(C)(c1ccc(O)cc1)c1ccc(O)cc1` in this test.
0.0

----------
# Read-out: solute carrier (SLC22A6), SLC22A6 (gene 9356)
# run-description: LTEA_HepaRG_SLC22A6: Life Technologies and Expression Analysis (LTEA) Assay for solute carrier (SLC22A6) using HepaRG (AID 2283653)
# condition-context: mRNA level, 48 h; actives raise or lower the signal
# Experimental: LTEA_HepaRG is a cell based, multiplexed-readout assay that uses HepaRG, a human liver cell line, with measurements taken at 48 hours after chemical dosing on a 96-well plate.LTEA_HepaRG_SLC22A6 is one of 102 assay component(s) measured in the LTEA HepaRG cell culture assay. It is a marker of NR mediated transport.Data from the assay component LTEA_HepaRG_SLC22A6 was analyzed into 1 endpoint. […]
Activity calls are given as the source filed them. The calls were made as follows: active = hit-call score of the fitted dose curve at least 0.9, where 1 is the maximum; inactive = score below 0.9.
measured-quantity: outcome

# count of solved cases: 4
- chemical-string: "S=C(S)NCCNC(=S)S.[Mn+2].[S-]C([S-])=NCCN=C([S-])[S-].[Zn+2]"
  outcome: "inactive"
- chemical-string: "COC(=O)c1ccccc1C(=O)O"
  outcome: "inactive"
- chemical-string: "CN(C)C(=O)Nc1ccc(Cl)c(Cl)c1"
  outcome: "inactive"
- chemical-string: "S=C([S-])NCCNC(=S)[S-].[Mn+2]"
  outcome: "inactive"

Now look at this one.
What does the data say about its outcome? Entry: `N#CSCSc1nc2ccccc2s1`
inactive

----------
# target-or-test-system: Nuclear respiratory factor 1 (Homo sapiens) (UniProt Q16656)
# Sequence (Q16656 whole entry, looked up): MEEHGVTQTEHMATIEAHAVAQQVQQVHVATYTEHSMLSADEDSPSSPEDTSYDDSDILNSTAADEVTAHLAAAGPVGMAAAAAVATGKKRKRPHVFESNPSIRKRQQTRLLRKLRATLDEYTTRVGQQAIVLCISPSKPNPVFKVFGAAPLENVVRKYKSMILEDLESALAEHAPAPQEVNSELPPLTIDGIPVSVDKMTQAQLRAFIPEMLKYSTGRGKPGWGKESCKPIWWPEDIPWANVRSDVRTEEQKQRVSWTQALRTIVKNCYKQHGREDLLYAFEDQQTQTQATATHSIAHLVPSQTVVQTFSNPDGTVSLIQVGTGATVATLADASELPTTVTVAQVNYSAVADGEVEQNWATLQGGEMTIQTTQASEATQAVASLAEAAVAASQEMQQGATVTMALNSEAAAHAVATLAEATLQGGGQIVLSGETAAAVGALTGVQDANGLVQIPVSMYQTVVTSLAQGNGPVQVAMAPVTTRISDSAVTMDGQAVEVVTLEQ
# run-description: ATG_NRF1_CIS: Attagene CIS-FACTORIAL HepG2 Assay for human Nuclear Respiratory Factor 1 (NRF1) Orphan Gene (AID 2282987)
# condition-context: HepG2 NRF1 cis-element reporter, Attagene multiplex; actives raise or lower the signal
Calls of active or inactive are those of the source. How the source made its calls: active means hit-call score of the fitted dose curve at least 0.9, where 1 is the maximum; inactive means score below 0.9.
measured-quantity: outcome

# count of solved cases: 10
- compound: "CCCCC(CC)COC(=O)c1ccccc1C(=O)O (stereo unspecified)"
  outcome: "inactive"
- compound: "CCC(C)OC(=O)N1CCCCC1CCO (stereo unspecified)"
  outcome: "inactive"
- compound: "CCCCCCC(C)OC(=O)COc1nc(F)c(Cl)c(N)c1Cl (stereo unspecified)"
  outcome: "inactive"
- compound: "COC(=O)c1ccccc1S(=O)(=O)NC(=O)Nc1nc(OC(F)F)cc(OC(F)F)n1"
  outcome: "inactive"
- compound: "C[C@]12C[C@H](O)[C@H]3[C@@H](CCC4=CC(=O)CC[C@@]43C)[C@@H]1CC[C@@H]2C(=O)CO"
  outcome: "inactive"
- compound: "COCCO"
  outcome: "inactive"
- compound: "O=C(c1ccccc1)C1CCCCC1"
  outcome: "inactive"
- compound: "COC(=O)c1cccc(C)c1S(=O)(=O)NC(=O)Nc1nc(OCC(F)(F)F)nc(N(C)C)n1"
  outcome: "inactive"
- compound: "CCCCOCCOCCOCc1cc2c(cc1CCC)OCO2"
  outcome: "inactive"
- compound: "COC(=O)CSc1cc(N=c2sc(=O)n3n2CCCC3)c(F)cc1Cl"
  outcome: "inactive"

Now look at this one.
What does the data say about its outcome? Entry: `S=C(S)NCCNC(=S)S.[Mn+2].[S-]C([S-])=NCCN=C([S-])[S-].[Zn+2]`
inactive

----------
# run-description: APR_HepG2_P-H2AX_1hr: Apredica 1-hour HepG2 Assay for H2AX Phosphorylation (AID 2282673)
# condition-context: high-content imaging, actives raise or lower the signal
The source made the active and inactive calls. Rule for the calls: active = hit-call score of the fitted dose curve at least 0.9, where 1 is the maximum; inactive = score below 0.9.
Your reply should match one of these outcome classes. active, inactive

Look up the recorded call for CCC(C)OC(=O)N1CCCCC1CCO (stereo not given) in this test.
inactive

Look up the recorded call for `S=C([S-])NCCNC(=S)[S-].[Mn+2]` in this test.
inactive

Look up the recorded call for `O=C(Nc1ccc([N+](=O)[O-])cc1Cl)c1cc(Cl)ccc1O` in this test.
inactive

Look up the recorded call for `N#CSCSc1nc2ccccc2s1` in this test.
active

Look up the recorded call for `c1ccc(Nc2ccccc2)cc1` in this test.
inactive

Look up the recorded call for `COC(=O)c1ccc(I)cc1S(=O)(=O)NC(=O)Nc1nc(C)nc(OC)n1` in this test.
inactive

Look up the recorded call for `CCCCOC(=O)[C@@H](C)Oc1ccc(Oc2ccc(C(F)(F)F)cn2)cc1` in this test.
inactive

Look up the recorded call for `Oc1ccc(C(c2ccc(O)cc2)C(Cl)(Cl)Cl)cc1` in this test.
inactive

Look up the recorded call for `COc1c(Cl)ccc(Cl)c1C(=O)O` in this test.
inactive

Look up the recorded call for `CCNc1nc(N)nc(Cl)n1` in this test.
inactive

Look up the recorded call for `O=C(O)C1(C(=O)Nc2ccc(Cl)cc2Cl)CC1` in this test.
inactive

Look up the recorded call for `CCN(CC)C(=O)c1cccc(C)c1` in this test.
inactive

Look up the recorded call for `CCCN(CCC)c1c([N+](=O)[O-])cc(C(F)(F)F)c(N)c1[N+](=O)[O-]` in this test.
active

Look up the recorded call for CCOC(=O)C(C)Oc1ccc(Oc2nc3ccc(Cl)cc3o2)cc1 (stereo not given) in this test.
inactive

Look up the recorded call for `COC(=O)c1cccc(C)c1S(=O)(=O)NC(=O)Nc1nc(OCC(F)(F)F)nc(N(C)C)n1` in this test.
inactive

Look up the recorded call for `CCCN(CCC)C(=O)SCC` in this test.
inactive

Look up the recorded call for `CCN(Cc1c(F)cccc1Cl)c1c([N+](=O)[O-])cc(C(F)(F)F)cc1[N+](=O)[O-]` in this test.
inactive

Look up the recorded call for `S=C(S)NCCNC(=S)S.[Mn+2].[S-]C([S-])=NCCN=C([S-])[S-].[Zn+2]` in this test.
inactive

Look up the recorded call for CC1(C)C(C=C(Cl)Cl)C1C(=O)OCc1cccc(Oc2ccccc2)c1 (stereo not given) in this test.
inactive

Look up the recorded call for `CC(C)(C)[C@@H](O)[C@@H](Cc1ccc(Cl)cc1)n1cncn1` in this test.
inactive

Look up the recorded call for C=CCOC(Cn1ccnc1)c1ccc(Cl)cc1Cl (stereo not given) in this test.
inactive

Look up the recorded call for `COCCO` in this test.
inactive

Look up the recorded call for `COC(=O)CSc1cc(N=c2sc(=O)n3n2CCCC3)c(F)cc1Cl` in this test.
inactive

Look up the recorded call for `CN(C)C(=O)Nc1ccc(Cl)c(Cl)c1` in this test.
inactive

Look up the recorded call for `CCOC(=O)NCCOc1ccc(Oc2ccccc2)cc1` in this test.
inactive
